- tested.on: IDO1 (1-435) (Homo sapiens, UniProt P14902)
- Construct: His-tag of pET15b with TEV site (thrombin site replaced) (cleaved yes); made in house; host or cells: E. coli Rosetta 2 (DE3) pLysS
- Sequence (P14902 whole entry): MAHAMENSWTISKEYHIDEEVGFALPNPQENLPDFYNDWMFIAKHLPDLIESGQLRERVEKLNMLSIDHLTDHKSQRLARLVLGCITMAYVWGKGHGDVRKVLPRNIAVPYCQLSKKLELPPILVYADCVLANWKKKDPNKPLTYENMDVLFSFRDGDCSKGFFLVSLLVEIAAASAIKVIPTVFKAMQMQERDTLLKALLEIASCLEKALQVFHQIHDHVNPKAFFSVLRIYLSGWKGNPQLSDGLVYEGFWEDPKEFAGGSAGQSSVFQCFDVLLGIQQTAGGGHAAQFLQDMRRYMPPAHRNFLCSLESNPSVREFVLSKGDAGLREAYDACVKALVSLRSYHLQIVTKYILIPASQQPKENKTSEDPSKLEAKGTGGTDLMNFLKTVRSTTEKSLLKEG
- protocol.summary: STD-NMR fragment screening, IDO1
- Format: binding
- test.context: 1 = hit, 0 = no hit
Here, each record is paired with measured IDO1 (STD-NMR hit flag) data.
measure.name: IDO1 (STD-NMR hit flag)

>>> print(df.to_string())
                                    compound  experimental_value
 0                       Nc1nn(CC(=O)O)cc1Br                   0
 1                        Cn1ncc(Br)c1C(=O)O                   1
 2                      Clc1ccc(CN2CCNCC2)s1                   0
 3                         O=c1ncc(Cl)c[nH]1                   1
 4                    Cn1c(=O)cc(Cl)[nH]c1=O                   0
 5     O=C(c1ccc(Br)cc1)C12CN3CN(CN(C3)C1)C2                   0
 6                       Nc1ccc2[nH]cnc2c1Br                   0
 7                        O=C(O)c1cccc(Cl)n1                   0
 8            CS(=O)(=O)c1ncc(Cl)c(C(=O)O)n1                   0
 9  Fc1cc(C2CNCCN2)c(Cl)cc1Cl (centres unmarked)                   0
10                           NCCCn1cc(Cl)cn1                   0
11                 O=C(c1ccc(Cl)cc1)N1CCOCC1                   0
12                            COc1nc(N)ncc1I                   0
13                        COc1cc(OC)nc(Cl)n1                   1
14                          Brc1noc(C2CC2)n1                   0
15                    Brc1cnn(-c2nnn[nH]2)c1                   1
16                              Cn1ccc(Br)n1                   1
17                                Clc1ccncc1                   0
18                       Nc1ncnc(C(=O)O)c1Cl                   0
19              O=S(=O)(c1ccc(Cl)s1)N1CCNCC1                   0
20                             Nc1ncc(F)cc1I                   0
21                      O=C(O)c1ncc(Cl)cc1Cl                   0
22                  Cc1[nH]c(=O)[nH]c(=O)c1I                   1
